# Measurement description: Inhibition of varicella zoster virus thymidine kinase (VZV TK+) YS/R strain
Property label: pEC50
Note: pEC50 values are expressed as the negative base-10 logarithm of concentration in M.

Notebook: `Nc1cc2c(ncn2CCOCP(=O)(O)O)c(O)n1` , pEC50 read as 5.75

* * *

# Measurement description: Inhibitory activity against varicella zoster virus thymidine kinase (VZV TK+) YS strain
Give measured log10 of EC50 for each item. Keep answers brief.
// stored as log10 of EC50 expressed in µM

Notebook: NC1=NC2N=CC=NC2C(=O)N1CCOCP(=O)(O)O (stereo not drawn) , log10 of EC50 read as 2.06

Notebook: `CC(C)CCCCCOP(=O)(COCCn1cnc2c(O)nc(N)nc21)OCCCCCC(C)C` , log10 of EC50 read as 0.91

Notebook: `CCOP(=O)(O)COCCn1cnc2c(N)ncnc21` , log10 of EC50 read as 2.30

Notebook: `Nc1ncnc2c1ccn2CCOCP(=O)(O)O` , log10 of EC50 read as 1.87

Notebook: `Nc1ncc2ncn(CCOCP(=O)(O)O)c2n1` , log10 of EC50 read as 2.01

Notebook: Nc1nc(N)c2ncn(CCOCP(=O)(O)O)c2n1 [PMEDAP] , log10 of EC50 read as 0.84

Notebook: `CC(C)OP(=O)(COCCn1cnc2c(N)nc(N)nc21)OC(C)C` , log10 of EC50 read as 1.98

Notebook: `CC(C)CCCCCOP(=O)(COCCn1cnc2c(N)ncnc21)OCCCCCC(C)C` , log10 of EC50 read as 0.60

Ref: BindingDB's records for doi:10.1021/jm9811256
